Tested on: Salmonella enterica
test-details: In vitro antibacterial activity against aerobically grown Salmonella choleraesuis (58B015)
Assay type: functional
measurement-name: MIC

MIC recorded for this compound, `O=C(O)c1cn(C2CC2)c2c(F)c(N3CCN4CCC3CC4)c(F)cc2c1=O` , is 0.01 µg/mL

MIC recorded for this compound, `O=C(O)c1cn(C2CC2)c2c(Cl)c(N3C[C@@H]4C[C@H]3CN4)c(F)cc2c1=O` , is 0.02 µg/mL

MIC recorded for this compound, `CN1C2CC[C@@H]1CCN(c1cc3c(cc1F)c(=O)c(C(=O)O)cn3CCF)C2` , is > 1.56 µg/mL

MIC recorded for this compound, `CN1C[C@@H]2C[C@H]1CN2c1cc2c(cc1F)c(=O)c(C(=O)O)cn2-c1ccc(F)cc1` , is 0.2 µg/mL

MIC recorded for this compound, `C=Cn1cc(C(=O)O)c(=O)c2cc(F)c(N3C[C@H]4CC[C@@H](C3)N4C)cc21` , is 0.78 µg/mL

MIC recorded for this compound, `CN1C[C@@H]2C[C@H]1CN2c1c(F)cc2c(=O)c(C(=O)O)cn(-c3ccc(F)cc3)c2c1F` , is 0.39 µg/mL

MIC recorded for this compound, `CCn1cc(C(=O)O)c(=O)c2cc(F)c(N3C[C@H]4CC[C@@H](C3)N4C)cc21` , is 0.78 µg/mL

MIC recorded for this compound, `CCn1cc(C(=O)O)c(=O)c2cc(F)c(N3C[C@H]4CC[C@@H](C3)N4C)c(F)c21` , is 1.56 µg/mL

MIC recorded for this compound, CN1C[C@@H]2C[C@H]1CN2c1cc2c(cc1F)c(=O)c(C(=O)O)cn2C1CC1 [DANOFLOXACIN] , is 0.05 µg/mL

MIC recorded for this compound, `CN1[C@@H]2CC[C@H]1CN(c1cc3c(cc1F)c(=O)c(C(=O)O)cn3C1CC1)C2` , is 0.2 µg/mL

MIC recorded for this compound, `CN1[C@@H]2CC[C@H]1CN(c1c(F)cc3c(=O)c(C(=O)O)cn(C4CC4)c3c1Cl)C2` , is 0.78 µg/mL

MIC recorded for this compound, `C=Cn1cc(C(=O)O)c(=O)c2cc(F)c(N3CCN4CCC3CC4)cc21` , is 0.1 µg/mL

MIC recorded for this compound, `CN1[C@@H]2CC[C@H]1CN(c1cc3c(cc1F)c(=O)c(C(=O)O)cn3CCF)C2.Cl.O` , is 0.39 µg/mL

MIC recorded for this compound, O=C(O)c1cn(C2CC2)c2cc(N3CCN4CCCC3C4)c(F)cc2c1=O (stereo not given) , is 0.05 µg/mL

MIC recorded for this compound, `CCn1cc(C(=O)O)c(=O)c2cc(F)c(N3CC[C@H]4CCC(C3)N4C)c(F)c21` , is 1.56 µg/mL

* * *

System: Pasteurella multocida
test-details: In vitro antibacterial activity against aerobically grown Pasteurella multocida (59A006)
Format: functional
For each of the compounds below, state its MIC.
Respond numerically; units are µg/mL and should not be typed.

MIC recorded for this compound, `CN1C[C@@H]2C[C@H]1CN2c1cc2c(cc1F)c(=O)c(C(=O)O)cn2-c1ccc(F)cc1` , is 0.02

MIC recorded for this compound, `CN1[C@@H]2CC[C@H]1CN(c1cc3c(cc1F)c(=O)c(C(=O)O)cn3C1CC1)C2` , is 0.05

MIC recorded for this compound, `CN1C2CC[C@@H]1CCN(c1c(F)cc3c(=O)c(C(=O)O)cn(C4CC4)c3c1F)C2` , is 0.02

MIC recorded for this compound, `CN1C2CC[C@@H]1CCN(c1cc3c(cc1F)c(=O)c(C(=O)O)cn3C)C2` , is 6.25
